Sourced from patent US11564928B1

Assignment: determine reported pIC50 for the given molecules.
# measurement-target: human CB2 receptor (Homo sapiens (Human), UniProt P34972)
# Sequence (P34972 whole entry): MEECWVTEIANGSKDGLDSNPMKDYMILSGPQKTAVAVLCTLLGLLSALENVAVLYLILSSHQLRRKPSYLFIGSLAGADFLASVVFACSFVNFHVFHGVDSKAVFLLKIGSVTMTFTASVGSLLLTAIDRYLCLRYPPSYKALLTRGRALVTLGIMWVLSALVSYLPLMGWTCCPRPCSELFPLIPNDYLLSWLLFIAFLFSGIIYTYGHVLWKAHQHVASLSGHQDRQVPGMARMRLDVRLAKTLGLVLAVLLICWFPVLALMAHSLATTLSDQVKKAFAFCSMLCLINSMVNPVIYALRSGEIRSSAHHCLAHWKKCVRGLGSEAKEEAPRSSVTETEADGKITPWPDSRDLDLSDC
# protocol: CB2 receptor binding assay ([3H]CP-55,940 displacement, HEK-293 membranes)
# measurement-conditions: membranes of HEK-293 cells with human recombinant CB2R, [3H]CP-55,940; read-out: CB2 IC50
Formally, pIC50 is defined as -log10 of the concentration c, with c in mol/L.

Please state recorded pIC50 (tested on human CB2 receptor (Homo sapiens (Human), UniProt P34972)) of O=C(NC1CC2(CCC2)C1)c1cc2cc(-c3ccc(OC(F)F)cc3)cnc2n(CCN2CCOCC2)c1=O [Compound 52]
8.00

Next: C[C@@H](NC(=O)c1cc2cc(Br)cnc2n(Cc2ccc(F)cc2)c1=O)c1ccc(F)cc1 [Compound 87]
8.30

Also C[C@@H](NC(=O)c1cc2cc(C3CC3)cnc2n(Cc2ccc(F)cc2)c1=O)c1ccc(C#N)cc1 [Compound 95] , if possible.
8.49

Please do the same for O=C(NC1CC2(CCC2)C1)c1cc2cc(Br)cnc2n(Cc2ccc(F)cc2)c1=O [Compound 81] as well.
8.30

Same lookup for COc1ccc(-c2cnc3c(c2)cc(C(=O)NC2CCC4(CC2)CC4)c(=O)n3CCN2CCOCC2)cc1 [Compound 28] , please.
9.15

What would you report for O=C(NC1CC2(CCC2)C1)c1cc2cc(-c3ccccn3)cnc2n(CCN2CCOCC2)c1=O [Compound 34] ?
9.00

Note, next up: CC(NC(=O)c1cc2cc(-c3ccc(OC(F)F)cn3)cnc2n(CCN2CCOCC2)c1=O)c1ccc(F)cc1 (stereo not shown) [Compound 55]
9.22

###

# measurement-target: UniProt:P34972
# protocol: CB2 receptor cAMP assay (DiscoverX HitHunter cAMP XS+)
# Format: cell-based
# measurement-conditions: CHO-K1, read-out: Max Stimulation %
# label = met if Emax < 80% else not met

Regarding CC1CCC(NC(=O)c2cc3cc(-c4ccccn4)cnc3n(CCN3CCOCC3)c2=O)CC1 (stereo not shown) [Compound 62] , kindly confirm whether its Emax is beneath 80%.
met

Follow-up entry: N#Cc1ccc(-c2cnc3c(c2)cc(C(=O)NC24CC(C2)C4)c(=O)n3CCN2CCOCC2)nc1 [Compound 59]
met

Moving on to COc1ccc(-c2cnc3c(c2)cc(C(=O)NC2CC4(CCC4)C2)c(=O)n3CCN2CCOCC2)cc1 [Compound 29]
not met

Please give the result for COc1ccc(-c2cnc3c(c2)cc(C(=O)NCc2ccc(F)cc2)c(=O)n3CCN2CCOCC2)cc1 [Compound 105] too.
not met

###

# measurement-target: human recombinant CB1R (Homo sapiens (Human), UniProt P21554)
# Sequence (P21554 whole entry): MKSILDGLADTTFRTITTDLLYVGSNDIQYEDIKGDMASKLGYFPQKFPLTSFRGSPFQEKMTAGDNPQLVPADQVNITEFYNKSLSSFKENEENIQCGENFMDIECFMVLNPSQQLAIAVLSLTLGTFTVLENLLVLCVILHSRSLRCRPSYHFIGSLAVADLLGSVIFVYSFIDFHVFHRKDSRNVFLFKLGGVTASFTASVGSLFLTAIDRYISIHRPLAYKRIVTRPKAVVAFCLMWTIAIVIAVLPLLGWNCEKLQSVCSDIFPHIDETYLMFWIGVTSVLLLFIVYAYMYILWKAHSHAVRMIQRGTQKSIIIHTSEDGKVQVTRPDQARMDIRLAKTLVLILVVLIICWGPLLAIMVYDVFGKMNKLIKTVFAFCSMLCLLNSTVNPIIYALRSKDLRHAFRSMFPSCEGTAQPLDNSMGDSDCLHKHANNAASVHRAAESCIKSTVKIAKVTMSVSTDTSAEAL
# protocol: CB1 receptor binding assay ([3H]CP-55,940 displacement, HEK-293 membranes)
# measurement-conditions: membranes of HEK-293 cells with human recombinant CB1R, [3H]CP-55,940; read-out: CB1 IC50
Assign IC50 to each entry below.
Unit µM implied. Number only.

Requested field: IC50. Item: O=C(NC1CC2(CCC2)C1)c1cc2cc(-c3ccc(OC(F)F)cc3)cnc2n(CCN2CCOCC2)c1=O
0.962

Same thing, different molecule: O=C(NC1CC2(CCC2)C1)c1cc2cc(-c3ccc(F)cn3)cnc2n(CCN2CCOCC2)c1=O
0.112

// same read-out, input: O=C(NC1CC2(CCC2)C1)c1cc2cc(C3COC3)cnc2n(Cc2ccc(F)cc2)c1=O
1.61

Input CC(C)c1cnc2c(c1)cc(C(=O)N[C@H](C)c1ccc(F)cc1)c(=O)n2Cc1ccc(F)cn1
2.88

###

# measurement-target: human CB2 receptor (Homo sapiens (Human), UniProt P34972)
# protocol: CB2 receptor cAMP assay (DiscoverX HitHunter cAMP XS+)
# Type: cell-based
# measurement-conditions: cAMP Hunter CHO-K-1 cells expressing human CB2 receptor; read-out: cAMP IC50
reported-metric: pIC50
Expect pIC50 as a plain number equal to -log10 of the molar concentration.

Given the entry C[C@@H](NC(=O)c1cc2cc(-c3ccc(OC(F)F)cn3)cnc2n(CCN2CCOCC2)c1=O)c1ccc(F)cc1 , report its measured pIC50.
9.70

Now the molecule CC(NC(=O)c1cc2cc(-c3ccc(OC(F)F)cn3)cnc2n(CCN2CCOCC2)c1=O)c1ccc(F)cc1 (stereo not drawn)
7.96

For COc1ccc(-c2cnc3c(c2)cc(C(=O)NC2CC4(COC4)C2)c(=O)n3CCN2CCOCC2)cc1 then?
6.90

Now this one: N#Cc1ccc(-c2cnc3c(c2)cc(C(=O)NC24CC(C2)C4)c(=O)n3CCN2CCOCC2)nc1
6.92

And what about the molecule CC(NC(=O)c1cc2cc(-c3ccc(OC(F)F)cc3)cnc2n(CCN2CCOCC2)c1=O)c1ccc(F)cc1 (stereo not drawn) ?
8.70

###

# measurement-target: human CB2 receptor (Homo sapiens (Human), UniProt P34972)
# protocol: CB2 receptor binding assay ([3H]CP-55,940 displacement, HEK-293 membranes)
# measurement-conditions: membranes of HEK-293 cells with human recombinant CB2R, [3H]CP-55,940; read-out: CB2 IC50
Mark each entry TRUE if its IC50 sits below 7 nM, and FALSE for all others.

is_below(IC50, 7 nM) for N#Cc1ccc(-c2cnc3c(c2)cc(C(=O)NC2CC4(CCC4)C2)c(=O)n3CCN2CCOCC2)nc1 ?
TRUE

Request: O=C(NC12CC(C1)C2)c1c(O)c2cc(-c3ccc(F)cc3)cnc2n(CCN2CCOCC2)c1=O
FALSE

And N#Cc1ccc(-c2cnc3c(c2)cc(C(=O)NC2(c4ccc(F)cc4)CC2)c(=O)n3CCN2CCOCC2)nc1 ?
FALSE

Repeat with O=C(NC1CC2(CCC2)C1)c1cc2cc(-c3ccncn3)cnc2n(CCN2CCOCC2)c1=O
FALSE

Would you mind doing O=C(NC1CC2(CCC2)C1)c1cc2cc(-c3ccc(F)cn3)cnc2n(CCN2CCOCC2)c1=O as well?
TRUE

Then what about the molecule CC1CCC(NC(=O)c2c(O)c3cc(-c4ccc(F)cc4)cnc3n(CCN3CCOCC3)c2=O)CC1 (stereo not drawn) ?
TRUE

Then CC1CCC(NC(=O)c2cc3cc(-c4ccc(OC(F)F)cc4)cnc3n(CCN3CCOCC3)c2=O)CC1 (stereo not drawn) ?
TRUE

O=C(NC12CCC(CC1)CC2)c1c(O)c2cc(-c3ccc(F)cc3)cnc2n(CCN2CCOCC2)c1=O ?
FALSE

Ok, now CC1CCC(NC(=O)c2c(O)c3cc(-c4ccc5c(c4)OCCO5)cnc3n(CCN3CCOCC3)c2=O)CC1 (stereo not drawn)
FALSE

// repeat for COc1ccc(-c2cnc3c(c2)c(O)c(C(=O)NC2CCC(C)CC2)c(=O)n3CCN2CCOCC2)cc1 (stereo not drawn) and report
TRUE

Now consider O=C(NC1CC2(CCC2)C1)c1c(O)c2cc(-c3ccc(F)cc3)cnc2n(CCN2CCOCC2)c1=O .
TRUE

Next entry: O=C(NC1CC2(CCC2)C1)c1cc2cc(C3COC3)cnc2n(Cc2ccc(F)cc2)c1=O
TRUE

Please answer likewise for COc1ccc(-c2cnc3c(c2)c(O)c(C(=O)NC24CC(C2)C4)c(=O)n3CCN2CCOCC2)cc1
FALSE

Next up: COc1ccc(-c2ccc3c(c2)cc(C(=O)NC2CCC(C)(C)CC2)c(=O)n3CCN2CCOCC2)cc1
TRUE

Likewise for C[C@@H](NC(=O)c1cc2cc(C3COC3)cnc2n(Cc2ccc(F)cc2)c1=O)c1ccc(F)cc1 ?
TRUE

Try the molecule CC1CCC(NC(=O)c2c(O)c3cc(-c4ccc(OC(F)F)cc4)cnc3n(CCN3CCOCC3)c2=O)CC1 (stereo not drawn)
FALSE

Try this molecule too: COc1ccc(-c2cnc3c(c2)cc(C(=O)NC(C)c2ccc(F)cc2)c(=O)n3CCN2CCOCC2)cc1 (stereo not drawn)
TRUE

Again, but for COc1ccc(-c2cnc3c(c2)cc(C(=O)NC2CCC(C)(C)CC2)c(=O)n3CCN2CCOCC2)cc1
TRUE

Request: C[C@H](NC(=O)c1cc2cc(Br)cnc2n(Cc2ccc(F)cc2)c1=O)c1ccc(F)cc1
FALSE

Please answer likewise for C[C@H]1CC[C@@H](NC(=O)c2c(O)c3cccnc3n(Cc3ccc(F)cc3)c2=O)CC1
FALSE

Param item: C[C@H]1CC[C@H](NC(=O)c2c(O)c3cccnc3n(Cc3ccc(F)cc3)c2=O)CC1
FALSE

Record: C[C@@H](NC(=O)c1cc2cc(-c3ccc(OC(F)F)cn3)cnc2n(CCN2CCOCC2)c1=O)c1ccc(F)cc1
TRUE

Check COc1ccc(-c2cnc3c(c2)cc(C(=O)NC2CCC(F)(F)CC2)c(=O)n3CCN2CCOCC2)cc1 too.
TRUE

Try this molecule too: CC(C)c1cnc2c(c1)cc(C(=O)N[C@H](C)c1ccc(C#N)cc1)c(=O)n2Cc1ccc(F)cc1
FALSE

Next: O=C(NC1CC2(CCC2)C1)c1cc2cc(C3CC3)cnc2n(Cc2ccc(F)cc2)c1=O
TRUE

Again, but for N#Cc1ccc(-c2cnc3c(c2)cc(C(=O)NC24CC(C2)C4)c(=O)n3CCN2CCOCC2)cc1
TRUE

Do the same for C[C@@H](NC(=O)c1cc2cc(C3COC3)cnc2n(Cc2ccc(F)cc2)c1=O)c1ccc(C#N)cc1 please
FALSE

Okay, and O=C(NC1CC2(CCC2)C1)c1cc2cc(Br)cnc2n(Cc2ccc(F)cn2)c1=O ?
FALSE

And O=C(NC1CC2(CCC2)C1)c1cc2cc(-c3ccc4c(c3)OCCO4)cnc2n(CCN2CCOCC2)c1=O ?
TRUE
